Listed here are compounds together with their documented inhibition at 1 µM.
- Assay System: hFAAH (Homo sapiens, UniProt O00519)
- Construct: expressed in transfected cells; host or cells: HEK293-TRex (Invitrogen) stably transfected with hFAAH in the pcDNA5-Tet-off vector, or T84 human colon epithelial cells (endogenous hFAAH); used as a microsomal preparation
- Sequence (O00519 whole entry): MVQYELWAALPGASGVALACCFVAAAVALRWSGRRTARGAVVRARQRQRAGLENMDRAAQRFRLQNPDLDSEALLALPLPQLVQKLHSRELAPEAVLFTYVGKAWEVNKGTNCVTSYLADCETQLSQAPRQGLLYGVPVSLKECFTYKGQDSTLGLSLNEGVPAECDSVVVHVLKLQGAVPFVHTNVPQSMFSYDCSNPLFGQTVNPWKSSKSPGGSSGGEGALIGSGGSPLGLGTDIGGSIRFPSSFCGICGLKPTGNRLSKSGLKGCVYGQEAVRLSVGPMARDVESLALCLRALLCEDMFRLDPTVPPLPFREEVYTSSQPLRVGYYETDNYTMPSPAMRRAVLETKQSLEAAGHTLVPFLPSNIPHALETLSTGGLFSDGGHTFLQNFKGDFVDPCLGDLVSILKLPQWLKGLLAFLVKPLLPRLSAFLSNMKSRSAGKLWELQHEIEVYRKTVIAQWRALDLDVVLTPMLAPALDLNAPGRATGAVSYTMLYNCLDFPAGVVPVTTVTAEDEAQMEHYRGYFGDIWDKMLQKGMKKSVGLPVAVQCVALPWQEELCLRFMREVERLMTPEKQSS
- Method: Fluorimetric assay with hFAAH microsomes (enzymatic, fluorescence based)
- Format: biochemical
- Test Settings: compound at 1 uM, AA-AMC substrate

Lab note: need inhibition at 1 µM with hFAAH (Homo sapiens, UniProt O00519) for entry CC(C1CCC1)N1Cc2ncnc(Nc3cnc4ccccc4c3)c2C1 (centres unmarked) [Compound 36] , please look it up.
> 25%

Record: Cc1nc(C)c(CNC(=O)N2Cc3ncnc(Nc4cnc5ccccc5c4)c3C2)s1 [Compound 48]
< 25%

Record: Cc1noc(C)c1CN1Cc2ncnc(Nc3cnc4ccccc4c3)c2C1 [Compound 67]
> 25%

Record: c1ccc(CCN2Cc3ncnc(Nc4cnc5ccccc5c4)c3C2)cc1 [Compound 22]
> 75%

Record: Clc1ccccc1CN1Cc2ncnc(Nc3cnc4ccccc4c3)c2C1 [Compound 84]
> 75%
